FYI, the data here is from ChEMBL document CHEMBL5252669.

PROTOCOL: Selectivity index, ratio of CC50 for human MRC5 cells to IC50 for methicillin resistant Staphylococcus aureus
Type: toxicity
EXPERIMENTAL_CONTEXT: read-out: Ratio CC50/IC50
# note: boundary value 0.7 maps to False; selectivity ratio below it maps to True

Before answering, review these 3 worked examples.
CCOC(=O)[C@H]1O[C@@H](n2ccc(N)nc2=O)C=C[C@@H]1NC(=O)C[C@@H](N)CCN(C)C(=N)N.Cl.Cl.Cl :: True
CCCCCCOC(=O)[C@H]1O[C@@H](n2ccc(N)nc2=O)C=C[C@@H]1NC(=O)C[C@@H](N)CCN(C)C(=N)N :: True
CN(CC[C@H](N)CC(=O)N[C@H]1C=C[C@H](n2ccc(N)nc2=O)O[C@@H]1C(=O)OCCc1ccccc1)C(=N)N :: False

In: Given "C#CCCCOC(=O)[C@H]1O[C@@H](n2ccc(N)nc2=O)C=C[C@@H]1NC(=O)C[C@@H](N)CCN(C)C(=N)N" , is recorded selectivity ratio strictly lower than 0.7?
Out: False

In: Given "CN(CC[C@H](N)CC(=O)N[C@H]1C=C[C@H](n2ccc(N)nc2=O)O[C@@H]1C(N)=O)C(=N)N.Cl.Cl.Cl" , is recorded selectivity ratio strictly lower than 0.7?
Out: True

----------
PROTOCOL: Selectivity index, ratio of CC50 for human MRC5 cells to IC50 for Enterococcus faecalis ATCC 29212
Type: toxicity
EXPERIMENTAL_CONTEXT: read-out: Ratio CC50/IC50
Classify as follows. Reported selectivity ratio greater than or equal to 1: Condition met. Reported selectivity ratio below: Condition not met.

CN(CC[C@H](N)CC(=O)N[C@H]1C=C[C@H](n2ccc(N)nc2=O)O[C@@H]1C(=O)O)C(=N)N.Cl :: Condition not met
CN(CC[C@H](N)CC(=O)N[C@H]1C=C[C@H](n2ccc(N)nc2=O)O[C@@H]1C(N)=O)C(=N)N.Cl.Cl.Cl :: Condition not met
CCCCCCOC(=O)[C@H]1O[C@@H](n2ccc(N)nc2=O)C=C[C@@H]1NC(=O)C[C@@H](N)CCN(C)C(=N)N :: Condition met

In: Confirm if selectivity ratio reported for the compound "C#CCCCOC(=O)[C@H]1O[C@@H](n2ccc(N)nc2=O)C=C[C@@H]1NC(=O)C[C@@H](N)CCN(C)C(=N)N" is 1 or above.
Out: Condition met

In: Confirm if selectivity ratio reported for the compound "CN(CC[C@H](N)CC(=O)N[C@H]1C=C[C@H](n2ccc(N)nc2=O)O[C@@H]1C(=O)OCc1ccccc1)C(=N)N" is 1 or above.
Out: Condition met

In: Confirm if selectivity ratio reported for the compound "CCCCOC(=O)[C@H]1O[C@@H](n2ccc(N)nc2=O)C=C[C@@H]1NC(=O)C[C@@H](N)CCN(C)C(=N)N" is 1 or above.
Out: Condition met

----------
Recorded MIC values for a group of compounds are listed next.
Tested on: Saccharomyces cerevisiae
PROTOCOL: Antifungal activity against Saccharomyces cerevisiae incubated for 16 hrs by broth microdilution method
Type: functional
The reply should consist of the numeric value with the unit placed after it.

Here is how some compounds turned out for MIC.
CN(CC[C@H](N)CC(=O)N[C@H]1C=C[C@H](n2ccc(N)nc2=O)O[C@@H]1C(=O)OCc1ccccc1)C(=N)N :: 128 µg/mL
CCOC(=O)[C@H]1O[C@@H](n2ccc(N)nc2=O)C=C[C@@H]1NC(=O)C[C@@H](N)CCN(C)C(=N)N.Cl.Cl.Cl :: 32 µg/mL

Let's switch to this compound now.
In: What does the data say about its MIC? Entry: "CN(CC[C@H](N)CC(=O)N[C@H]1C=C[C@H](n2ccc(N)nc2=O)O[C@@H]1C(=O)OCCc1ccccc1)C(=N)N"
Out: 64 µg/mL
